All values here come from ChEMBL document CHEMBL3779845.

experiment: Half life of compound in serum containing medium; assay type: ADME
reported.metric: half-life (min)
Numbers only; they are read as min.

Measured half-life of O=NN(CCCl)C(=O)NCCCl : 15

----------
test: Half life of compound in MEM-EBSS by HPLC-UV analysis in presence of 10% fetal bovine serum; assay type: physicochemical; settings: cattle, MEM-EBSS with 10% fetal bovine serum
reported.metric: half-life (min)
Quick reminder: number only, in min, skip the unit.

Record Nc1nc(OCc2cccc(CNC(=O)N(CCCl)N=O)c2)c2nc[nH]c2n1 . Reported half-life: 18

----------
assay: Half life of compound in PBS by HPLC-UV analysis
reported.metric: half-life (min)
Number only, in min; omit the unit.

In plain terms, Nc1nc(OCc2cccc(CNC(=O)N(CCCl)N=O)c2)c2nc[nH]c2n1 has a documented half-life of 30
